These entries and their values trace back to ChEMBL document CHEMBL1140713.

- SYSTEM_NAME: Human immunodeficiency virus type 1 integrase (Human immunodeficiency virus 1, UniProt Q7ZJM1)
- Sequence (Q7ZJM1 whole entry): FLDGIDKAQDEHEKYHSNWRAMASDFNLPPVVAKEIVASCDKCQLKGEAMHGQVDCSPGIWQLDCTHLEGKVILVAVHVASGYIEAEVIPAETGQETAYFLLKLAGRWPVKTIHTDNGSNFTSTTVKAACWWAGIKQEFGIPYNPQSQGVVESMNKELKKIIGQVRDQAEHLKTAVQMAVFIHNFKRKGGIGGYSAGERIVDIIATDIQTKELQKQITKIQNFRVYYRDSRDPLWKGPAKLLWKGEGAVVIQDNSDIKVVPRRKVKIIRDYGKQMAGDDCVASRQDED
- EXPERIMENT_SUMMARY: Inhibition of recombinant HIV1 integrase-mediated 3'-processing activity in presence of magnesium
pIC50: −log10 of the molar value.
MEASURED_ATTRIBUTE: pIC50

# SMILES_ENTRY, pIC50
data = [
    ("O=C1c2c(ccc(O)c2O)CN1Cc1ccc(F)cc1", 3.55),
]

a: O=C(NNC(=O)c1cccc(O)c1O)c1cc2ccccc2cc1O
b: O=C1c2c(ccc(O)c2O)CN1N1Cc2ccc(O)c(O)c2S1(=O)=O
c: O=C1c2c(ccc(O)c2O)CN1N(S(=O)(=O)c1ccc(O)c(O)c1)S(=O)(=O)c1ccc(O)c(O)c1
d: O=C1c2c(ccc(O)c2O)CN1N1C(=O)c2ccc(F)cc2C1=O
Sort the compounds on pIC50; start with the lowest figure. Labels, requested order. d, a, b, c
